target: 5-HT3 receptor (Mus musculus); construct: The receptor source was NIE-115 cells; host or cells: NIE-115 cells; assay: serotonin 5-HT3 binding assay (NovaScreen), NIE-115 cells; settings: IC50, 20 mM HEPES pH 7.4, 150 mM NaCl, 25° C., 60 minutes
Experimental Endpoint: pIC50
Entry type: numeric. Quantity: pIC50, the -log10 of concentration in molar units.

Identify measured pIC50 corresponding to COc1c2c(nc3ccccc13)CN(CCC1CCN(Cc3ccccc3)CC1)C2=O
5.93

====

biological target: 5-HT3 receptor (Mus musculus, UniProt P23979); construct: The receptor source was NIE-115 cells; host or cells: NIE-115 cells; test: serotonin 5-HT3 binding assay (NovaScreen), NIE-115 cells; details: 20 mM HEPES pH 7.4, 150 mM NaCl, 25° C., 60 minutes; read-out: Ki
Experimental Endpoint: Ki
Put down the number, then write its unit next to it.

In one line, give reported Ki of the entry CN1[C@@H]2CC[C@H]1C[C@@H](OC(=O)c1cc(Cl)cc(Cl)c1)C2 .
4.14 nM

====

Molecular target: 5-HT3 receptor (Mus musculus)
Construct: The receptor source was NIE-115 cells; host or cells: NIE-115 cells
Sequence (P23979 24-489): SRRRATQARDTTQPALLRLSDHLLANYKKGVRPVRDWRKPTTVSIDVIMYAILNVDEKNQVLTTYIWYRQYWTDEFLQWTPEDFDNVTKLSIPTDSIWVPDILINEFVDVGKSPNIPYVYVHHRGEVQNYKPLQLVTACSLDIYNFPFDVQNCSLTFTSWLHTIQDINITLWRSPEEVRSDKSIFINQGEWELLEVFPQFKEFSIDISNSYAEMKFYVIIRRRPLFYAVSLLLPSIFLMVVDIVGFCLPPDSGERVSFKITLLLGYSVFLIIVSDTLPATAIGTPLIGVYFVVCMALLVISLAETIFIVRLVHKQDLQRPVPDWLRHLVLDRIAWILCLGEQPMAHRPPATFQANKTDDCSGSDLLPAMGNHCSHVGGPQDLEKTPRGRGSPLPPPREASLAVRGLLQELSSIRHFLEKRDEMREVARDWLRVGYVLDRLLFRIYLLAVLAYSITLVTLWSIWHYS
Assay: serotonin 5-HT3 binding assay (NovaScreen), NIE-115 cells
Settings: Ki, 20 mM HEPES pH 7.4, 150 mM NaCl, 25° C., 60 minutes
Experimental Endpoint: pKi
Friendly reminder that pKi comes from taking -log10 of the concentration in mol/L.

Quote pKi with test system 5-HT3 receptor (Mus musculus) for COc1c2c(nc3ccccc13)CN(CCC1CCN(Cc3ccccc3)CC1)C2=O [Cm.A]
6.26
